experimentalSystem: T1, Human serum albumin (human, UniProt P02768 25-609)
T1 construct: also called HSA
experimentSummary: BLI (Octet) as in Example 1, His-tagged VHH, HSA
quantityKind: Kd (nM)
# number only, unit nM dropped from output

binder	Kd, nM
HS5 (VHH, not shown: C-terminal His-tag) VHH: EVQLVESGGGLVQAGGSLRLSCAASGRTFTTHAMGWFRQAPGKEREFVATINWGGRTTYYADSVKGRFIISRDTGANTVYLQMNSLKPEDTAVYYCASNLDTYNVRAGTTNSWGQGTQVTVSS	0.946
HS10 (VHH, not shown: C-terminal His-tag) VHH: EVQLVESGGGLVQPGGSLRLSCAASGSTDSAYRMGWFRQAPGKEREFVSAINWSDGRTYYADSVKGRFTISRDNSKNTLYLQMNSLRAEDTAVYYCAADPDSRLYYTVPQNYDYWGQGTLVTVSS	2.89
HS12 (VHH, not shown: C-terminal His-tag) VHH: QVQLVESGGGSVQAGGSLRLSCAASGRTFISFSMGWFRQAPGKEREFVASITNSGSGILYGDSVKGRFTISRDNAKNTMYLQMNSLKPEDTAVYYCAAGTGAGRYRYASMFDYWGQGTQVTVSS	0.568

Let us move to another entry and its Kd.
Asked: For HS6 (VHH, not shown: C-terminal His-tag) VHH: EVQLVESGGGLVQAGGSLRLSCAASGRIFHTYAVGWFRQAPGKERESVVIINWSSDHTYVAQSVKGRFTISRDRAKNTFYLQMNSLKPEDTAVYYCAVRRRLYGLRESDFDSWGQGTQVTVSS , what is its reported Kd?
Given back: 0.498

Recorded values, source patent US12723105.
